- Test system: EKVX NSCLC
- test_summary: NCI-60 one-dose screen, 48 h
- condition_parameters: 10 µM
About 83,000 compounds went through this panel and 20% of them were active in at least one assay; those are over-represented in the sample as a whole. The source made the active and inactive calls. Rule for the calls: active = growth percent below 10; inactive = the rest.
Reply using exactly one outcome from t = active, f = inactive

>  <compound>
CC1CN(Cc2ccccc2)C(=O)NC1=O (stereo unspecified)

>  <assigned_label>
f

$$$$
>  <compound>
Cc1ccc(NC(=O)Nc2nc3ccccc3s2)cc1NC(=O)Nc1nc2ccccc2s1

>  <assigned_label>
f

$$$$
>  <compound>
COc1cc(CNCCCCCCN2C(=O)c3cccc4cccc(c34)C2=O)ccc1O

>  <assigned_label>
f

$$$$
>  <compound>
CC(C)=CCc1cc(O)cc2c1OC(C=C(C)C)C1=C2C(=O)C2=C(C1=O)S(=O)(=O)CCN2 (stereo unspecified)

>  <assigned_label>
f

$$$$
>  <compound>
Nc1ccc2c(c1)Cc1cc(N)c(Br)cc1-2

>  <assigned_label>
f

$$$$

(Q) Which result was noted for this compound in the test: `Cc1ccc(NC(=O)Nc2cccnc2)cc1NC(=O)Nc1cccnc1`
(A) f

(Q) Which result was noted for this compound in the test: `COc1ccc(-c2nnc(-c3c(-c4ccccc4)nc4ncccn34)o2)cc1OC`
(A) f

(Q) Which result was noted for this compound in the test: `COc1ccc(OC)c(/C=C/c2nc(SCc3ccccc3)n(-c3ccc(Cl)cc3)n2)c1`
(A) f

(Q) Which result was noted for this compound in the test: `CCN(CC)CCOc1nc2ccccc2c2c1-c1ccc(OC)cc1C2=O`
(A) f

(Q) Which result was noted for this compound in the test: `COc1ccc(-c2nc3sccn3c2-c2nc3c([nH]2)C(=O)c2ccccc2C3=O)cc1`
(A) f

(Q) Which result was noted for this compound in the test: CCCCC(CCCCCC(CCCC)NCc1ccc2c(c1)OCO2)NCc1ccc2c(c1)OCO2 (stereo unspecified)
(A) t

(Q) Which result was noted for this compound in the test: COc1ccc(N2C(=O)C3c4[nH]c5ccc(OCc6ccccc6)cc5c4C4CCC(C(C)C)CC4C3C2=O)cc1 (stereo unspecified)
(A) f

(Q) Which result was noted for this compound in the test: COc1ccc2c(c1)N(CCO)C1=C(C(=O)OC1)C2c1cc(OC)c(OC)c(OC)c1 (stereo unspecified)
(A) f

(Q) Which result was noted for this compound in the test: `O=C(Nc1cccc(Br)c1)c1cc(=O)[nH]c2ccccc12`
(A) f

(Q) Which result was noted for this compound in the test: `CCCCOC(=O)Oc1ccc(C(=O)Oc2ccc(OCC)cc2)cc1`
(A) f

(Q) Which result was noted for this compound in the test: CCOC(=O)C(NC(=O)C(Cl)Cl)C(O)c1ccccc1 (stereo unspecified)
(A) f

(Q) Which result was noted for this compound in the test: `O=C(CCCCCCC(=O)Nc1cccnc1)NO`
(A) f

(Q) Which result was noted for this compound in the test: `CS(=O)(=O)Nc1cccc(-c2cc(-c3ccccc3Cl)c(C#N)c(N)n2)c1`
(A) f

(Q) Which result was noted for this compound in the test: `CN(C)c1ccc(Cc2ccc(N(C)C)cc2Cl)c(Cl)c1`
(A) f

(Q) Which result was noted for this compound in the test: COc1cc2c(cc1OCCCCCCN1CCN(CC(=O)Nc3ccc(Cl)cc3C(=O)c3ccccc3Cl)CC1)N=CC1CCCN1C2=O (stereo unspecified)
(A) t

(Q) Which result was noted for this compound in the test: `Cc1cc(O)c(C(C)(C)C)cc1Sc1cc(C(C)(C)C)c(O)cc1C`
(A) f

* * *

- Tested on: LOX IMVI melanoma
- test_summary: NCI-60 one-dose screen, 48 h (100 = growth as untreated, 0 = no growth, -100 = all killed)
- condition_parameters: 10 µM
This is part of a sample that, as a whole, favours compounds with a hit. Of some 83,000 tested, about 20% had one in any assay.
Mark Criterion met only when growth stays strictly below 50%. Values equal to the cut-off are Criterion not met.

>  <compound>
C[N+](C)(C)c1ncnc2nc[nH]c12

>  <assigned_label>
Criterion not met

$$$$
>  <compound>
Cc1occc1-c1nnc(SCC(=O)c2ccc(NC(=O)CC(C)C)cc2)o1

>  <assigned_label>
Criterion not met

$$$$
>  <compound>
O=C1NC(=O)N(Cc2ccccc2)CC1Br (stereo unspecified)

>  <assigned_label>
Criterion met

$$$$
>  <compound>
COc1ccc2c(c1)sc1nc(-c3ccccc3)c(-c3cccnc3)n12

>  <assigned_label>
Criterion not met

$$$$
>  <compound>
c1ccc([C@H]2CN3CCSC3=N2)cc1

>  <assigned_label>
Criterion not met

$$$$

(Q) Determine if `COc1ccc(S(=O)(=O)NCCCNc2nccc(-c3c(-c4ccc(F)cc4)nc4sccn34)n2)cc1` shows growth strictly lower than 50%.
(A) Criterion met

(Q) Determine if `c1ccc(CNc2ncnc3scc(-c4cccs4)c23)nc1` shows growth strictly lower than 50%.
(A) Criterion not met

(Q) Determine if `CCN(CCCCCCCCCCN1CC(=O)N(CCCCCCCCCCN(CC)Cc2ccccc2OC)CC1=O)Cc1ccccc1OC` shows growth strictly lower than 50%.
(A) Criterion met

(Q) Determine if Nc1c(C(=O)Nc2ccccc2)sc2nc3c(cc12)C(O)CCC3 (stereo unspecified) shows growth strictly lower than 50%.
(A) Criterion met

(Q) Determine if `CC(C)(C)NC/C(=C\c1ccccc1)C(=O)c1ccccc1` shows growth strictly lower than 50%.
(A) Criterion met

* * *

Catalogue of growth values
- Tested on: MCF7 breast
- test_summary: NCI-60 one-dose screen, 48 h (100 = growth as untreated, 0 = no growth, -100 = all killed)
- condition_parameters: 10 µM
This is part of a sample that, as a whole, favours compounds with a hit. Of some 83,000 tested, about 20% had one in any assay.
State the answer as a number, implicitly in %.

>  <compound>
Nc1ccccc1NC(=O)CCCCC(=O)Nc1ccc2c(c1)/C(=C/c1ccc[nH]1)C(=O)N2

>  <tested_on>
MCF7 breast

>  <growth / %>
35

$$$$
>  <compound>
O=c1oc2cc(OS(=O)(=O)c3ccccc3)ccc2c2c1CCCCC2

>  <tested_on>
MCF7 breast

>  <growth / %>
49.7

$$$$
>  <compound>
O=C1/C(=C\c2ccc(F)cc2)CN(C(=O)c2ccccc2)C/C1=C\c1ccc(F)cc1

>  <tested_on>
MCF7 breast

>  <growth / %>
1.32

$$$$
>  <compound>
O=C1/C(=C/c2ccc(Cl)cc2)SC(=Nc2ccc(Cl)cc2)N1Cc1nc2ccccc2[nH]1

>  <tested_on>
MCF7 breast

>  <growth / %>
59

$$$$
>  <compound>
COc1ccc(CN2CCC(N3CCCC3=O)c3cc(Cl)ccc32)cc1 (stereo not given)

>  <tested_on>
MCF7 breast

>  <growth / %>
100

$$$$
>  <compound>
O=C1OCC2=C1C(c1cccc(Br)c1)c1cc3c(cc1N2CCO)CCC3 (stereo not given)

>  <tested_on>
MCF7 breast

>  <growth / %>
21.4

$$$$
>  <compound>
O=C(N/N=C/c1cc2ccccc2c2ccccc12)c1cc(O)c(O)c(O)c1

>  <tested_on>
MCF7 breast

>  <growth / %>
67.6

$$$$
>  <compound>
O=C(CNC(=O)OCc1ccccc1)NCC(=O)Oc1ccc([N+](=O)[O-])cc1

>  <tested_on>
MCF7 breast

>  <growth / %>
95.8

$$$$

(Q) Send back MCF7 breast growth of `COc1cc(-c2cc(/C=C/C(=O)c3ccc(F)c(F)c3)[nH]n2)cc(OC)c1OC` only.
(A) 48.3

(Q) Send back MCF7 breast growth of CC[C@H](C)C(=O)O[C@H]1CCC=C2C=C[C@H](C)C(CCC3C[C@@H](O)CC(=O)O3)[C@H]21 (stereo not given in full) only.
(A) 83.6

(Q) Send back MCF7 breast growth of `O=C(O)c1ccc(Cl)cc1Nc1ccc(F)cc1` only.
(A) 76.7

(Q) Send back MCF7 breast growth of `N#CCCN1C/C(=C/c2ccccc2)C(=O)/C(=C/c2ccccc2)C1` only.
(A) -12

(Q) Send back MCF7 breast growth of `COc1ccc(/C=C/C(=O)Nc2ccc(-c3nc4ccc(F)cc4s3)cc2)cc1` only.
(A) 38.9

(Q) Send back MCF7 breast growth of OCC1OC(n2cnc3c(N/N=C\c4ccccn4)ncnc32)C(O)C1O (stereo not given) only.
(A) 16.8

(Q) Send back MCF7 breast growth of `CN(Cc1ccccc1)Cc1ccc([N+](=O)[O-])cc1I` only.
(A) 91.6

* * *

Catalogue of growth values
- Tested on: SK-MEL-28 melanoma
- test_summary: NCI-60 one-dose screen, 48 h (100 = growth as untreated, 0 = no growth, -100 = all killed)
- condition_parameters: 10 µM
About 83,000 compounds went through this panel and 20% of them were active in at least one assay; those are over-represented in the sample as a whole.
State the answer as a number, implicitly in %.

>  <compound>
COc1cc(-c2cc(C(=O)N3CCN(C(=O)c4ccccc4NCc4ccco4)CC3)nc3cc(-c4ccccc4)nn23)cc(OC)c1OC

>  <units_of_measure>
%

>  <growth>
59.3

$$$$
>  <compound>
COc1ccc(-c2nc(-c3nc4ccc(Cl)cc4[nH]3)c3ccccn23)cc1

>  <units_of_measure>
%

>  <growth>
12

$$$$
>  <compound>
COc1cc(NC(=O)c2sc3nc4c(cc3c2N)C(O)CCC4)cc(OC)c1 (configuration not stated)

>  <units_of_measure>
%

>  <growth>
85.1

$$$$

(Q) Give the reported growth for this compound. `COc1cc(-c2cc(/C=C3\C(=O)Nc4ccccc43)[nH]n2)cc(OC)c1OC`
(A) 59.8

(Q) Give the reported growth for this compound. `COc1cc(-c2cc(/C=C/C(=O)c3ccc(N)cc3)[nH]n2)cc(OC)c1OC`
(A) 6.59

(Q) Give the reported growth for this compound. CCOC(=O)C1CCc2c(ccc3ccccc23)N1CCC#N (configuration not stated)
(A) 91.2

(Q) Give the reported growth for this compound. `O=S(=O)(NCCNc1nccc(-c2c(-c3ccc(F)cc3)nc3sccn23)n1)c1ccc2ccccc2c1`
(A) 93

(Q) Give the reported growth for this compound. COc1ccc2nc3ccccc3c(NCCNCC(C)O)c2c1 (configuration not stated)
(A) 8.18

(Q) Give the reported growth for this compound. `Clc1ccccc1N=Cc1ccc2c(c1)OCO2`
(A) 110

(Q) Give the reported growth for this compound. `Fc1cc(C(F)(F)F)ccc1-c1cncnc1NC1CCCCCC1`
(A) 111

(Q) Give the reported growth for this compound. c1ccc(C(NC2CC3CCC2C3)c2ccccc2)cc1 (configuration not stated)
(A) 110
